Below, each entry is listed alongside its reported ELISA signal.
Target: T1, monkey B7H3-His (monkey)
T1 chain: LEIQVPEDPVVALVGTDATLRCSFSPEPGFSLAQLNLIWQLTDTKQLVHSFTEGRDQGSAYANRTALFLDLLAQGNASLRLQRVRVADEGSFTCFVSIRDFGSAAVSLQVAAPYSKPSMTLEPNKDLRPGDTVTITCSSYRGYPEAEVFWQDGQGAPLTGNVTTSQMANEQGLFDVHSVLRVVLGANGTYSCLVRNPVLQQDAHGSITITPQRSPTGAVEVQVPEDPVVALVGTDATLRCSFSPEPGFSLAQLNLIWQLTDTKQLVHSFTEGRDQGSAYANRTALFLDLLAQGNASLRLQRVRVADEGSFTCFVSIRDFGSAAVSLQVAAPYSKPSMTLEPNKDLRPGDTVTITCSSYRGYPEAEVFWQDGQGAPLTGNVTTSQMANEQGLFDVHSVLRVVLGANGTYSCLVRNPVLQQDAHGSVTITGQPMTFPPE
Measurement notes: ELISA, purified VHH
Returns: the value as a bare number; no unit string appended.

Reference set (3 entries):
| Binder | Measurement type | Quantitative result |
| --- | --- | --- |
| RWG4 (VHH, Camel VHH; tag not described; also called camel antibody RWG4) VHH: QVQLVQSGGGLVQPGGSLRLSCAASGFTFSVYWFYWVRQAPRQGLEWVSTIASNGSTYYSDSVKGRFTISRDNAKNTVYLQMNSLKPEDTAVYYCVSDPDYYSDYERAYKFWAQGTQVTVSS | ELISA signal | 1.81 |
| RWB12 (VHH, Camel VHH; tag not described; also called camel antibody RWB12) VHH: QVQLVESGGGSVQVGGSLRLSCAASGFTYNSYSVGWFRQAPGKEREGVAAINSGGSSTYYAASVKGRFTISRDNAKNTVYLQMNSLKPEDTAMYYCAARSPSPLTFQTRTLREDSYNYWGQGTQVTVSS | ELISA signal | 0.164 |
| RWH5 (VHH, Camel VHH; tag not described; also called RWHS [sic]; camel antibody RWH5) VHH: AVQLVESGGGSVQAGGSLRLSCKASGYCMGWFRQAPGKEREGVAALNTEGGVTYYADSVKGRFSISRDNTNLYLQMNSLKPEDTAIYYCAADDRPTRCAVGSLYLPYTYRGQGTQVTVSS | ELISA signal | 0.0979 |

// next item, ELISA signal requested
Query: What ELISA signal value was documented for this binder, RWC4 (VHH, Camel VHH; tag not described; also called camel antibody RWC4) VHH: EVQLVESGGGSVQAGGSLRLSCVASEDSTSAMCMGWFRQAPGKEREGVACINPTGEVTWYGDSVKGRFTISRDTVKKIVYLQMNSLKPEDTAMYYCAARVTYGGDWSTDTDYEYWGQGTQVTVSS ?
Result: 0.288

Every entry's value here was drawn from patent US20220380471A1.
